- System: Saccharomyces cerevisiae
- assayNotes: protein stability index of tFT-peptide fusion (C-terminal peptide) (PSI (0-1 scale)); higher = more stable (slower turnover)
- conditionInfo: genetic background: wild type; temperature: 30 C
recordedEndpoint: protein stability index
Just the number, please.

Look up protein stability index: GPHGNPGLAPLA 0.728

Entry WCAYRPGSTGHR please 0.731

Entry PPLPPLPLSLSI please 0.742

Entry SFLCGCVVCWLW please 0.449

Entry LERSSHRTEFLS please 0.587

Entry PRLDPTSPPPHA please 0.675

Entry VGFGARGVPGGG please 0.681

Entry QGGSHARDRRRL please 0.678

Entry TLKPTHAPSPPP please 0.672

Entry DCKVLIGQYQRE please 0.7

Entry VGGWGGVSLGGR please 0.721

Entry PPRPPLPRPLPP please 0.657

Entry RPFVRDFGCAVW please 0.711

Entry SRLVCSTLHWRD please 0.699

Entry SHPPFPFAPPPR please 0.674

Entry LFFPLPGILSFF please 0.523

Entry LRFVCALGYCVW please 0.471

Entry KKKNKNENKKPQ please 0.667

Entry SLRSIAPLGSRC please 0.832

###

- System: Saccharomyces cerevisiae
- assayNotes: protein stability index of tFT-peptide fusion (C-terminal peptide) (PSI (0-1 scale)); higher = more stable (slower turnover)
- conditionInfo: genetic background: wild type; temperature: 30 C
recordedEndpoint: protein stability index
Just the number, please.

Look up protein stability index: FFLPSLFSVLSF 0.53

Entry CLCCTSFPPPFP please 0.673

Entry IGARLMVGASRK please 0.775

Entry GLFAVWVVGVWC please 0.212

Entry SSPLRLAPTEPS please 0.693

Entry RPRLSGGLGGVG please 0.644

Entry GARGGGQSSFGE please 0.666

Entry GFLPDSKVKNPF please 0.673

Entry TLGSSTPFPCFP please 0.716

Entry FPPLSHLPPGLY please 0.758

Entry RPRIPLNSSSLS please 0.74

Entry TEYHIVTLPRRC please 0.625

Entry CWCGLGVWAFGV please 0.715

Entry PHSPSHTPVYPR please 0.694

Entry SQTEAGSICTLP please 0.676

Entry YFFQAFLLRTPL please 0.642

Entry EYCIYYTQFGSF please 0.65

Entry SLAFLPPSLSSS please 0.713

Entry WLFVALRGRFEF please 0.59

###

- Test system: Saccharomyces cerevisiae
- assayNotes: protein stability index of tFT-peptide fusion (C-terminal peptide) (PSI (0-1 scale)); higher = more stable (slower turnover)
- conditionInfo: genetic background: das1 deletion; temperature: 30 C
For each record, write down the corresponding protein stability index.
Just the number, please.

Look up protein stability index: DKLAQRLRALRG [DID2 C-terminal 12 aa] 0.699

Entry IHTPTIPKRSLT [MCX1 C-terminal 12 aa] please 0.715

Entry GRYAQIHEKHIE [ASN1 C-terminal 12 aa] please 0.702

Entry FQVVSKKKGRKH [SMY2 C-terminal 12 aa] please 0.691

Entry PICKLLEEEERG [ALG11 C-terminal 12 aa] please 0.7

Entry LSDDEEEEEEEE [RIX1 C-terminal 12 aa] please 0.648

Entry KPEEEKETLQEE [PAF1 C-terminal 12 aa] please 0.69

Entry DDIANNQSICCV [YPT11 C-terminal 12 aa] please 0.649

Entry LTSYINVHLVYV [YNL285W C-terminal 12 aa] please 0.301

Entry QVNKPGPLTVPF [MEH1 C-terminal 12 aa] please 0.702

Entry YEEFALRSGSSS [AFG2 C-terminal 12 aa] please 0.715

Entry GALLAGAAALLL [CCW12 C-terminal 12 aa] please 0.701

Entry FYIDKFQVREVK [SUC2 C-terminal 12 aa] please 0.706

Entry DPSKLRRVPVIQ [RGL1 C-terminal 12 aa] please 0.69

Entry RDWSSFSKDYEI [PMS1 C-terminal 12 aa] please 0.756

Entry ERCSLQNPFYSI [YNR066C C-terminal 12 aa] please 0.731

Entry VSKTYEEHIETV [JEN1 C-terminal 12 aa] please 0.688

Entry RQEEIKKRTALV [DPC25 C-terminal 12 aa] please 0.705

Entry KTSLKITHRRVI [YGL117W C-terminal 12 aa] please 0.742

Entry SGIVENDFENRS [YOR1 C-terminal 12 aa] please 0.707

Entry VIIVPIAVHFSR [SNC1 C-terminal 12 aa] please 0.561

Entry CLSGGLLRKIPK [TMH18 C-terminal 12 aa] please 0.722

Entry NSVDWIYSWGKN [MIC12 C-terminal 12 aa] please 0.716

Entry HEKRTEEVARYA [YGR026W C-terminal 12 aa] please 0.717

Entry TVGYGILKVMGF [PHO91 C-terminal 12 aa] please 0.659

Entry LEHMLEGKEQDE [PRM5 C-terminal 12 aa] please 0.707

Entry PFIFKTLEEQGL [CCP1 C-terminal 12 aa] please 0.743

Entry DQAKDASPNAKK [RGM1 C-terminal 12 aa] please 0.694

Entry TPRLYTDRSRDF [RPB2 C-terminal 12 aa] please 0.743

Entry EWTKLYAKKKPE [UBC13 C-terminal 12 aa] please 0.685

Entry SDDDVSSESEEE [BDF1 C-terminal 12 aa] please 0.7

Entry SSKGFFSKLGCC [YCK2 C-terminal 12 aa] please 0.692

Entry LQPDVPPSSGRS [KEX2 C-terminal 12 aa] please 0.695

Entry RSWDEFIGFKAY [CPA2 C-terminal 12 aa] please 0.745

Entry NGRYVDTDFDSM [LCB5 C-terminal 12 aa] please 0.707

Entry TKRLRKNKCIIM [RHO4 C-terminal 12 aa] please 0.743

Entry FSSEFSSDPTVN [YJL206C C-terminal 12 aa] please 0.696

Entry NMRFFYRLYVKN [BMT6 C-terminal 12 aa] please 0.489

Entry QTLDSEYNTILQ [GAT2 C-terminal 12 aa] please 0.704

Entry AKELISAIFFGE [TAF6 C-terminal 12 aa] please 0.698

Entry LSHAQKEIYEFK [UTP25 C-terminal 12 aa] please 0.687

Entry TKARTLGEGSVN [YDR476C C-terminal 12 aa] please 0.686

Entry ALENENKRKAKL [CAT2 C-terminal 12 aa] please 0.79

Entry VARYKMVSKRIW [EMP65 C-terminal 12 aa] please 0.717

Entry LARTDVNFMPWF [TRA1 C-terminal 12 aa] please 0.72

Entry PENGSLFEFDDN [SNU66 C-terminal 12 aa] please 0.696

Entry STTTVIQGEINK [LRG1 C-terminal 12 aa] please 0.671

Entry TVFETLTLHSAN [JSN1 C-terminal 12 aa] please 0.725

Entry MTSLDICALGIK [RVS161 C-terminal 12 aa] please 0.689

###

For each record, write down the corresponding protein stability index.
- Tested on: Saccharomyces cerevisiae
- assayNotes: protein stability index of tFT-peptide fusion (C-terminal peptide) (PSI (0-1 scale)); higher = more stable (slower turnover)
- conditionInfo: genetic background: doa10 deletion; temperature: 30 C
Just the number, please.

Look up protein stability index: DYSVIPSLALLP 0.669

Entry PPAPTPFPPSPR please 0.697

Entry EVGFHRRWVALS please 0.114

Entry VFFGLYLVTFTS please 0.196

Entry PVCRQVGVRLVA please 0.265

Entry VVVFGWIGYLYL please 0.282

Entry MIILGFILYFFW please 0.352

Entry LAVVLVWVPGRW please 0.311

Entry VGAVGVCILFVW please 0.195

Entry VWLAWCIVGGLG please 0.352

Entry IRSLRPFLLPLF please 0.283

Entry VCCSSVSLLVFA please 0.225

Entry TEVGAWLLLCRC please 0.231

Entry LFYVSFLFMLLF please 0.396

Entry FVWAVGLVSASV please 0.379

Entry CCSRFLMLRILV please 0.118

Entry VEQLLYIKATNV please 0.238

Entry LQIKSFTSQRLA please 0.0758

Entry TKGIIKKINIIM please 0.154

Entry LILIVVVAGSVG please 0.206

Entry CSYPTLSMYSTT please 0.665

Entry VGSSSGRLLYLC please 0.266

Entry RTALSSPRPALL please 0.713

Entry AVVCSRLVLFCL please 0.433

Entry IIFACFYGVFLM please 0.282

Entry VFLLFFFGLFVF please 0.356

Entry VAWWVCIRSCCG please 0.353

Entry FSFLLYASLVTH please 0.322

Entry EDRKRNKERRWT please 0.305

Entry FFVRSWWVELLF please 0.296

Entry LFSIFMSYRVYI please 0.302

Entry HDRLRGVFWRVP please 0.263

Entry FLCLFFLAVIKL please 0.502

Entry GGVWLSVVSWVG please 0.0676

Entry CFFMVGFVFYFV please 0.288

Entry FVIVSSCIGYAL please 0.437

Entry WQIGIYILQGLA please 0.146

Entry QNVKRIVRHMLT please 0.207

Entry HTYSFRLLFIFL please 0.381

Entry WCFGSLLIRFSL please 0.505

Entry VGVVLWVWGLGD please 0.423

Entry LLMFWLSIWFWG please 0.268

Entry VFFLLSVYMVMM please 0.182

Entry LSLVYFAALFSF please 0.356

Entry RWGLFIGIVIGF please 0.235

Entry QVSHLFAAVQLA please 0.337

Entry LLSFSQLGYFVL please 0.13

Entry LPPSPPAPLSRL please 0.804

Entry LEGRFLACRGIC please 0.144

Entry IGMVSELLLFYP please 0.63

Entry LCFGMVELMWIY please 0.371

Entry PDCRPPLVRCLL please 0.833

Entry TFLVWSLMAGDR please 0.484

Entry VSGEWSFLVRVQ please 0.392

Entry NFKELMEKSKYR please 0.677

Entry SVPRTRAPRLIS please 0.184

Entry CFPFYVSCLLVL please 0.25

Entry IRVFSFLLFGCF please 0.358

Entry TSPYTSFAHTSL please 0.662

Entry KKHKKGQKQKIN please 0.0638

Entry IMGGLRHRIEVY please 0.23

Entry YILLRWVNLSCL please 0.149

Entry GVCRFFCLVFCS please 0.494

Entry RLGSLVPLAKQL please 0.319

Entry VFDFVFHLRFVV please 0.091

Entry SFTPPRVCLCFS please 0.278

Entry GFGRRGQFGGTG please 0.542

Entry LSCFCLFCLSFC please 0.517

Entry LLLIGISFLIFY please 0.199

Entry VVACCVVFWVLP please 0.231

Entry WVFVVWFVFVVG please 0.202

Entry DSTLLYRPPSPA please 0.651

Entry RVVITYLVLSNR please 0.522

Entry GYLFICSWCEGF please 0.352

Entry YQKIARVSLAVS please 0.27

Entry LSVMKLFVMVGP please 0.358

Entry LGGCVSYINLLA please 0.197

Entry LPPFLSSLPSSP please 0.668

Entry KKKNIYKVMKLE please 0.146

Entry FLRLSFLIFPLH please 0.396

Entry LFFWVLTVMFVW please 0.222

Entry LLLTAIRVLRMH please 0.118

Value source: the supplement of paper PMC10724198
